System: IL-2 production
measurement.protocol: Rat in vivo IL-2 production inhibition test (Concanavalin A induced)
particulars: 10 mg/kg oral, 2 hours before Concanavalin A 15 mg/kg iv; blood IL-2 at 3 hours, vs vehicle control; male LEW rats
Structures can show the parent of a compound that is named as a salt.
property: inhibitory activity (IL-2 production inhibition rate) (%)
Answers are plain numbers, in %.

Here's what some known entries look like.
>>> measured_result("CN1CCC(CNc2nc(N3CCOCC3)nc(-n3c(C(F)F)nc4ccccc43)n2)CC1")
58
>>> measured_result("C[C@@H]1COCCN1c1cc(-n2c(C(F)F)nc3ccccc32)nc(NCC2CCN(C3CCOCC3)CC2)n1")
81
>>> measured_result("CS(=O)(=O)N1CCC(N2CCC(CNc3nc(N4CCOCC4)cc(-n4c(C(F)F)nc5ccccc54)n3)CC2)CC1")
72
>>> measured_result("FC(F)c1nc2ccccc2n1-c1cc(N2CCOCC2)nc(NCC2CCN([C@H]3CC[C@H](F)CC3)CC2)n1 [Example 43-1, dihydrochloride]")
73
>>> measured_result("CC(=O)N1CCC(N2CCC(CNc3nc(N4CCOCC4)cc(-n4c(C(F)F)nc5ccccc54)n3)CC2)CC1")
75
>>> measured_result("FC(F)c1nc2ccccc2n1-c1cc(N2CCOCC2)nc(NCC2CCN(C3CCOCC3)CC2)n1")
77

Dear colleague, I am looking for the recorded inhibitory activity (IL-2 production inhibition rate) of the following molecule: OCC1CCC(N2CCC(CNc3nc(N4CCOCC4)cc(-n4c(C(F)F)nc5ccccc54)n3)CC2)CC1 (stereo not shown)
51

###

System: Spleen cells prepared from male LEW/CrlCrlj rats (B cell proliferation)
measurement.protocol: Rat B cell proliferation inhibition test (anti-rat IgM, [3H]thymidine)
Type: cell-based
particulars: anti-rat IgM 3 μg/well, 48 hours culture
Description: 4. Rat B Cell Proliferation Inhibition Test Spleen cells (1.0×10^5 cells/well) prepared from male LEW/CrlCrlj rats (Charles River Laboratories, Japan, Inc.), mouse F(ab′)2 fragment anti-rat IgM (3 μg/well, SouthernBiotech Associates, Inc., Catalogue No. 3082-14) and the test compound dissolved in DMSO (final DMSO concentration 0.1%) were mixed in a 96-well plate using a 10% FCS-containing RPMI-1640 culture medium (total 200 μL). […]
Using IC50 as the sorting value, the categories are low class: < 2 nM; middle class: ≥ 2 nM and < 3 nM; high class: ≥ 3 nM

>>> group("CC1(NCC(=O)N[C@H]2CC[C@H](Oc3cc(-n4c(C(F)F)nc5ccccc54)nc(N4CCOCC4)n3)CC2)CC1 [Example 137]")
"high class"

Hi, small favor: classify CC(=O)N1CCC(CC(=O)N2CC(Nc3cc(-n4c(C(F)F)nc5ccccc54)nc(N4CCOCC4)n3)C2)CC1 [A564] by its IC50 when you get a moment.
middle class

Band assignment needed for O=C([C@H]1CCCO1)N1CC[C@H](Nc2cc(-n3c(C(F)F)nc4ccccc43)nc(N3CCOCC3)n2)C1 [A290] please.
middle class

###

target.system: Human PI3Kα (Homo sapiens, UniProt P42336)
Sequence (P42336 whole entry): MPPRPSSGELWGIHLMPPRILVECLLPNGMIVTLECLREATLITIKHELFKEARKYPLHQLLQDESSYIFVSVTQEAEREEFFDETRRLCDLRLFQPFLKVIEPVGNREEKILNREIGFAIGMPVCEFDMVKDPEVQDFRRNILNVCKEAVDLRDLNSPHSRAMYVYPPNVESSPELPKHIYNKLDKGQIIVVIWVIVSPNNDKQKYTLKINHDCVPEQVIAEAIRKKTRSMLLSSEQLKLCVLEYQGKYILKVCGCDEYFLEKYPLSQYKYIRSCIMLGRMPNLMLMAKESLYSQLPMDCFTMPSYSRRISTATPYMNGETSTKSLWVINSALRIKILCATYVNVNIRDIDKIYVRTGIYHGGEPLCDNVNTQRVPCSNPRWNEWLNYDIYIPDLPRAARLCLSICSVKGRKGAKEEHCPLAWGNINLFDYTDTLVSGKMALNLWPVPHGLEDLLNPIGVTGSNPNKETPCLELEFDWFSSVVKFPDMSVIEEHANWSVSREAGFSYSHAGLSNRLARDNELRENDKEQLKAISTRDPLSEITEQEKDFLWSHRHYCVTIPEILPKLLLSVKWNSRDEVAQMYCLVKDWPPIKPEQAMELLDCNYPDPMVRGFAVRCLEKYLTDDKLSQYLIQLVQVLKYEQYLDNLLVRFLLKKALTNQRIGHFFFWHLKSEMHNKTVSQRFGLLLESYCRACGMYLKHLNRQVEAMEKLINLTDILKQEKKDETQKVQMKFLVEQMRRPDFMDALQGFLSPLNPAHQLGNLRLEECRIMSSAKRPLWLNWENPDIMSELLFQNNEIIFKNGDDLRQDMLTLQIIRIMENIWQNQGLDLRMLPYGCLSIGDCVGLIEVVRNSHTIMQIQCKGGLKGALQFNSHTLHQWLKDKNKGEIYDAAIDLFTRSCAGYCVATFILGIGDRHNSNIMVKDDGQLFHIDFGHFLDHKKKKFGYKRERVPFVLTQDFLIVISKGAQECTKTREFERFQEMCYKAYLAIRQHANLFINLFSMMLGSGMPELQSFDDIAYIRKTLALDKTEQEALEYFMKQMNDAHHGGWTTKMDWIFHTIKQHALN
Sequence (P27986 whole entry partner): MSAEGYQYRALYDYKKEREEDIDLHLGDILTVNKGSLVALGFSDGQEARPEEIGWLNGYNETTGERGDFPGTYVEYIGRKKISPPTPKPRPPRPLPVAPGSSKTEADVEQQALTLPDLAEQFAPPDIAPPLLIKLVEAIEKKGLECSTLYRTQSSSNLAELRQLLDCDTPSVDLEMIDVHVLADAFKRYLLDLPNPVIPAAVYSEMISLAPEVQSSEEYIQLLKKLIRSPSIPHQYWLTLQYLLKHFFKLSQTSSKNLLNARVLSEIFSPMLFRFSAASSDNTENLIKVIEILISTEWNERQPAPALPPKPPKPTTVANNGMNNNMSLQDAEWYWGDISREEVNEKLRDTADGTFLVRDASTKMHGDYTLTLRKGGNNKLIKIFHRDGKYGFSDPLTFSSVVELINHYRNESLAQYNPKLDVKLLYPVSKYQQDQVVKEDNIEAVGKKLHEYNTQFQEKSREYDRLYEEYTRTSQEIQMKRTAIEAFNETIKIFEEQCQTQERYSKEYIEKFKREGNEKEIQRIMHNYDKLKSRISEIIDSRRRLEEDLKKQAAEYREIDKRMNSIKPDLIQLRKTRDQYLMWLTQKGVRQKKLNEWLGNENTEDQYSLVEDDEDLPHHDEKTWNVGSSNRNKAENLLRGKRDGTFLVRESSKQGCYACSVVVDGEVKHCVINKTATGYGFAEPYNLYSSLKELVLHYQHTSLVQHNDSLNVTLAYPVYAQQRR
Structures can show the parent of a compound that is named as a salt.
Can you tell me pIC50 for the items I'm about to list?
Give bare numbers, as −log10 of the molar value.

Illustrative cases are given below, each with its answer.
>>> measured_result("COC(=O)N[C@H]1CCN([C@H]2CC[C@H](Nc3nc(N4CCOCC4)cc(-n4c(C(F)F)nc5ccccc54)n3)CC2)C1=O")
6.14
>>> measured_result("Fc1ccc(N2CCC(CNc3nc(N4CCOCC4)cc(-n4c(C(F)F)nc5ccccc54)n3)CC2)cc1")
5.27
>>> measured_result("CC(C)(C)OC(=O)N1CC[C@H](Nc2nc(N3CCOCC3)cc(-n3c(C(F)F)nc4ccccc43)n2)C1")
5.55
>>> measured_result("CN(C)CCN1CC[C@H](Nc2nc(N3CCOCC3)cc(-n3c(C(F)F)nc4ccccc43)n2)C1 [Example 45, dihydrochloride]")
5.17

State recorded pIC50 for all listed compounds.
1. O=C([C@H]1CCCO1)N1CC[C@H](Nc2cc(-n3c(C(F)F)nc4ccccc43)nc(N3CCOCC3)n2)C1
2. COC(=O)N[C@@H]1CCN([C@H]2CC[C@H](Nc3nc(N4CCOCC4)cc(-n4c(C(F)F)nc5ccccc54)n3)CC2)C1=O
3. O=C(C1CCOC1)N1CC[C@H](Nc2cc(-n3c(C(F)F)nc4ccccc43)nc(N3CCOCC3)n2)C1 (some centres unmarked)
4. CC(=O)N1CCC(CC(=O)N2CC[C@H](Nc3cc(-n4c(C(F)F)nc5ccccc54)nc(N4CCOCC4)n3)C2)CC1
5. O=C(CC1CCOCC1)N1CC[C@H](Nc2cc(-n3c(C(F)F)nc4ccccc43)nc(N3CCOCC3)n2)C1

5.42
5.85
5.66
5.51
5.19

###

Test system: Spleen cells prepared from male LEW/CrlCrlj rats (B cell proliferation)
measurement.protocol: Rat B cell proliferation inhibition test (anti-rat IgM, [3H]thymidine)
Type: cell-based
particulars: anti-rat IgM 3 μg/well, 48 hours culture
Kindly supply the reported log10(IC50) values for the records listed here.
Use the decimal logarithm of IC50 (nM).

Please review the entries below; each comes with its answer.
>>> measured_result("O=C(CC1CCCO1)N1CC[C@H](Nc2cc(-n3c(C(F)F)nc4ccccc43)nc(N3CCOCC3)n2)C1 (some centres unmarked)")
0.40
>>> measured_result("O=C(CNC1CCCC1)N[C@H]1CC[C@H](Oc2cc(-n3c(C(F)F)nc4ccccc43)nc(N3CCOCC3)n2)CC1")
0.53
>>> measured_result("FC(F)c1nc2ccccc2n1-c1cc(OCC2CCN(C3CCOCC3)CC2)nc(N2CCOCC2)n1")
0.95
>>> measured_result("O=C1CC[C@@H](C(=O)N2CC(Nc3cc(-n4c(C(F)F)nc5ccccc54)nc(N4CCOCC4)n3)C2)N1")
0.59
>>> measured_result("FC(F)c1nc2ccccc2n1-c1cc(N[C@H]2C[C@@H]3C[C@H](N4CCOCC4)C[C@@H]3C2)nc(N2CCOCC2)n1")
0.48
>>> measured_result("COC(=O)N[C@H]1CCN([C@H]2CC[C@H](Nc3nc(N4CCOCC4)cc(-n4c(C(F)F)nc5ccccc54)n3)CC2)C1=O")
0.15
>>> measured_result("CC(=O)N1CCC(CC(=O)N2CC[C@H](Nc3cc(-n4c(C(F)F)nc5ccccc54)nc(N4CCOCC4)n3)C2)CC1")
0.15
>>> measured_result("FC(F)c1nc2ccccc2n1-c1cc(N2CCOCC2)nc(NCC2CCN(C3CCCCC3)CC2)n1")
0.61

For each entry beneath this line, provide reported log10(IC50).
1. O=C(CC1CCOCC1)N1CC[C@H](Nc2cc(-n3c(C(F)F)nc4ccccc43)nc(N3CCOCC3)n2)C1
2. O=C(C1CCOC1)N1CC[C@H](Oc2cc(-n3c(C(F)F)nc4ccccc43)nc(N3CCOCC3)n2)C1 (some centres unmarked)

[0.41, -0.40]

Quick batch: log10(IC50) for everything below.
1. CC(=O)N[C@H]1CCN([C@H]2CC[C@H](Oc3cc(-n4c(C(F)F)nc5ccccc54)nc(N4CCOCC4)n3)CC2)C1=O
2. CN(CC(=O)NC1CCC(Oc2cc(-n3c(C(F)F)nc4ccccc43)nc(N3CCOCC3)n2)CC1)C1CCC1 (centres unmarked)
3. O=C(CNC1CCCCC1)N[C@H]1CC[C@H](Oc2cc(-n3c(C(F)F)nc4ccccc43)nc(N3CCOCC3)n2)CC1
4. NC1(C(=O)N[C@H]2CC[C@H](Oc3cc(-n4c(C(F)F)nc5ccccc54)nc(N4CCOCC4)n3)CC2)CCCC1

1. 0.40
2. 0.56
3. 0.40
4. 0.76

###

Structures can show the parent of a compound that is named as a salt.
IC50 data for UniProtKB O00329 follow.
Sequence (O00329 whole entry): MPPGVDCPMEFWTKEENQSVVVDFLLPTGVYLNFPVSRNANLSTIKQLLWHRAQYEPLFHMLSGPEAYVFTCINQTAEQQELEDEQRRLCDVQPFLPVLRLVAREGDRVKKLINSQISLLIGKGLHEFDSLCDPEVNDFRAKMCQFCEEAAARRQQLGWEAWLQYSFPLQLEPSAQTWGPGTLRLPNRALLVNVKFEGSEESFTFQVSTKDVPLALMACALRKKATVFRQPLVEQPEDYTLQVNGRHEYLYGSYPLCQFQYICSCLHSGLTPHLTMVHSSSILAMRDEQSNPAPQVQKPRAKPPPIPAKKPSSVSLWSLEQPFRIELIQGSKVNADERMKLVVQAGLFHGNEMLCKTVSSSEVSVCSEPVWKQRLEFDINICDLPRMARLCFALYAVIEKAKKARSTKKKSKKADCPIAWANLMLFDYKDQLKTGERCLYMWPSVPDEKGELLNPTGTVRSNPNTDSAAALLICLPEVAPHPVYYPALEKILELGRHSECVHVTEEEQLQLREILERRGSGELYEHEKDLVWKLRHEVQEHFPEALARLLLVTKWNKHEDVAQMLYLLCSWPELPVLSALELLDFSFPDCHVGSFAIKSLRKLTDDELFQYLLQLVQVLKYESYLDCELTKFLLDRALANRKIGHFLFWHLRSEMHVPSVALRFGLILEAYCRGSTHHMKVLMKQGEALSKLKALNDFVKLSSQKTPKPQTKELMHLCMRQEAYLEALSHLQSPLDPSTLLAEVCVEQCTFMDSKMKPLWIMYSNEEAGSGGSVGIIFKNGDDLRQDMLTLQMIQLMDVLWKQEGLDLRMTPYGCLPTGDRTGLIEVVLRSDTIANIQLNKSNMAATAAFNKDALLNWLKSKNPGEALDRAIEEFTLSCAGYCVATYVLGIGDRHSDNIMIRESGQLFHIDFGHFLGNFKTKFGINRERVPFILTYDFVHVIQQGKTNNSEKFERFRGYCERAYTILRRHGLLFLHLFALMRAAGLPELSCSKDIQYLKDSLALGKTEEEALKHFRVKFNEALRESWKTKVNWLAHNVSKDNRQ
Sequence (P27986 whole entry partner): as the sequence (P27986 whole entry partner) above
Numbers only, in nM.

Examples with their reported IC50 follow.
>>> measured_result("OCC1CCC(N2CCC(CNc3nc(N4CCOCC4)cc(-n4c(C(F)F)nc5ccccc54)n3)CC2)CC1 (centres unmarked) [Example 29]")
45
>>> measured_result("O=C(CN1CCCCC1)N1CC[C@H](Nc2cc(-n3c(C(F)F)nc4ccccc43)nc(N3CCOCC3)n2)C1 [A475]")
25
>>> measured_result("FC(F)c1nc2ccccc2n1-c1cc(OCC2CCN(C3CCOCC3)CC2)nc(N2CCOCC2)n1 [Example 40]")
20
>>> measured_result("FC(F)c1nc2ccccc2n1-c1cc(N2CCOCC2)nc(NCC2CCN([C@H]3CC[C@@H](F)CC3)CC2)n1 [Example 43-2, dihydrochloride]")
8.6

Request the reported IC50 associated with Cc1ccc2nc(C(F)F)n(-c3cc(N4CCOCC4)nc(NC[C@H]4CC[C@H](N5CCOCC5)CC4)n3)c2c1 [Example 132]
12
